Below: a set of entries, each annotated with reported INHIBITION.
# System: Plasmodium berghei
# procedure.details: Screen against P. berghei liver stage (PbLuc), transformed with Luciferase, at 2uM
# Type: functional, HepG2
# test.context: tested at 2 uM
Screen size: about 68,000 compounds; about 2,700 (4%) showed an effect of 50% or more. Many of the other results were omitted from the sample, so strong results are more common in it than they were.
Give the value in % but do not write % after it.

Recorded results for 3 molecules are shown here.
# molecule, INHIBITION / %
measured = [
    ("Cc1ccccc1CN1CCC(CNc2ncnc3c2CCNCC3)C1 (stereo not drawn)", 32.26),
    ("CCn1nc(C)c2ncnc(N(C)Cc3ccco3)c21", 46.92),
    ("Cc1cc(C)n(CC2CN(CCOc3ccc(C#N)cc3)CCO2)n1 (stereo not drawn)", 13.24),
]

[Q] For the molecule Cc1nc(C)n(CC2CN(CCOc3ccc(C#N)cc3)CCO2)n1 (stereo not drawn) , give its measured INHIBITION value.
[A] 50.05

[Q] For the molecule N#Cc1cccc(S(=O)(=O)N2CCCCC2CCN2CCCC2)c1 (stereo not drawn) , give its measured INHIBITION value.
[A] -8.84

[Q] For the molecule CCOCC(O)CN1CCN(C(=O)Cc2ccc3c(c2)CCC3)CC1 (stereo not drawn) , give its measured INHIBITION value.
[A] 24.88

[Q] For the molecule COc1cc(C#N)ccc1OC12CCCN(CC1)C2 (stereo not drawn) , give its measured INHIBITION value.
[A] 63.83

[Q] For the molecule CCc1nnc2n1CCN(C(=O)c1ccc3nc(C)c(C)nc3c1)C2 , give its measured INHIBITION value.
[A] -72.78

[Q] For the molecule CCc1nc2ccccc2c(=O)n1CC1(O)CCN(C(=O)COC)CC1 , give its measured INHIBITION value.
[A] 56.99

[Q] For the molecule Cc1nc(N[C@H]2COC[C@@H]2N2CCCCC2)c2c(C)nn(C)c2n1 , give its measured INHIBITION value.
[A] -11.88

[Q] For the molecule CCCN1CCN(C(=O)c2scnc2C)CC1 , give its measured INHIBITION value.
[A] -21.84

[Q] For the molecule Cc1nonc1CN(C)Cc1nc(-c2cccc(F)c2F)oc1C , give its measured INHIBITION value.
[A] -25.82

[Q] For the molecule CC(NC(=O)c1sccc1C1CC1)c1ccc2c(c1)CC(=O)N2 (stereo not drawn) , give its measured INHIBITION value.
[A] 51.14

[Q] For the molecule Cc1ccsc1C(=O)NC(C)c1ccc2c(c1)CCC(=O)N2 (stereo not drawn) , give its measured INHIBITION value.
[A] 0.48

[Q] For the molecule CCN(Cc1ccc2c(c1)OCO2)C(=O)c1ccc(C)[nH]c1=O , give its measured INHIBITION value.
[A] 0.26

[Q] For the molecule O=S(=O)(C1CC1)N1CCc2onc(COc3ccccn3)c2C1 , give its measured INHIBITION value.
[A] 16.03

[Q] For the molecule COc1cc(C)c(CN2CCc3nc4ccsc4c(=O)n3CC2)cc1C , give its measured INHIBITION value.
[A] 36.56

[Q] For the molecule c1ccc2c(c1)nc1n2[C@@H](CNCc2nccs2)COC1 , give its measured INHIBITION value.
[A] 24.64

[Q] For the molecule CCc1nc2ccccc2c(=O)n1CC1(O)CCN(C(=O)C(C)C)CC1 , give its measured INHIBITION value.
[A] 59.91

[Q] For the molecule Cc1cccc(S(=O)(=O)NC(=O)c2ccc3c(c2)nnn3C)c1 , give its measured INHIBITION value.
[A] 53.99

[Q] For the molecule CCc1nc2ccccc2c(=O)n1CC1(O)CCN(CC(=O)OC)CC1 , give its measured INHIBITION value.
[A] 28.64

[Q] For the molecule CCc1nnc2n1CCN(C(=O)CN(C)C1CC1)C2 , give its measured INHIBITION value.
[A] -3.06

[Q] For the molecule Cc1nonc1CN(C)Cc1nc(-c2ccccc2Cl)oc1C , give its measured INHIBITION value.
[A] 51.96

Ref: ChEMBL document CHEMBL4513216
